Test Details: protein stability index of a GFP-peptide fusion (GPS, HEK-293T) (PSI 1-6); higher = more stable;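 note: 24-mer peptide tiles fused after GFP, lentivirally expressed, FACS-sorted into six equal bins by GFP/DsRed ratio, decoded by Illumina sequencing, PSI is the read-weighted mean bin number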
Stated Conditions: treatment: DMSO; c terminus: a fixed tail appended
# if value of protein stability index reaches 3, tag criterion met; if it stays below, tag criterion not met

The examples below pair each entry with its known result.
INSERT INTO results (sequence, discrete_label) VALUES
  ('SKPWHWPINYQGLRFSGVNDTDFR [POMT2]', 'criterion not met'),
  ('MHPGRTTGKGPSTHTQIDQQPPRL [M1AP]', 'criterion met'),
  ('VKMDSSIQPGPFRAVLKYLYTGEL [RHOBTB2]', 'criterion not met'),
  ('MSYSCCLPSLGCRTSCSSRPCVPP [KRT34]', 'criterion not met');

Could you tell me if the measured protein stability index of KLSETFLQIYQYVPKDQRLQAIKA [DLC1] reaches 3 or more?
criterion not met

Could you tell me if the measured protein stability index of VCRDSVSRKGELTPLPETGYWRVR [TRIM39] reaches 3 or more?
criterion not met

Could you tell me if the measured protein stability index of NRRLQLLEEENKERAKREMVMYSI [MFF] reaches 3 or more?
criterion met

Could you tell me if the measured protein stability index of EQLERIERKNAEMYKLSSEQFHEA [CHCHD6] reaches 3 or more?
criterion met

Could you tell me if the measured protein stability index of PVLHPSEERAAPVLSCEAATQTER [FAM189A2] reaches 3 or more?
criterion met

Could you tell me if the measured protein stability index of KLEKSIDSYYRLVIHRALDREQVS [PCDHGA10] reaches 3 or more?
criterion not met

Could you tell me if the measured protein stability index of RFYLLLFSFLGLLALGVSLLCNAI [PTGFR] reaches 3 or more?
criterion not met

---

Form field: protein stability index (one value per entry).
Test Details: protein stability index of a GFP-peptide fusion (GPS, HEK-293T) (PSI 1-6); higher = more stable
Stated Conditions: treatment: DMSO; c terminus: a fixed tail appended
Give the figure by itself; no unit, no explanation.

// solved cases for protein stability index follow
INSERT INTO results (sequence, measured_attribute, data_value) VALUES
  ('QLAAVHLSKSRTDYQPTQAGRLMR [RNF180]', 'protein stability index', 3.5),
  ('GKSRLSPAGEMKPMPLSEGKSILL [BCL2L13]', 'protein stability index', 3.44);

Output measured protein stability index for this item: PITRKAAQLYTLWVTFQVLLYTSL [DHCR7]
3.07

Output measured protein stability index for this item: LEDSTMGSVADTVARVLRGCLENM [PLK2]
2.79

Output measured protein stability index for this item: NTNNLTFLMDLPSAGRSMPEASDQ [RNF180]
4.28

Output measured protein stability index for this item: HQQVEEALSFTLLGSAPLDQEPLL [NEK8]
3.69

Output measured protein stability index for this item: FAVGYIKISWSTWGEMTLSLFSLL [SLC19A2]
3.18

Output measured protein stability index for this item: SLGLSHSTDIGALMYPSYTFSGDV [MMP1]
3.15

Output measured protein stability index for this item: EDSESLRIKEVEHMTRHLEESEKA [LRRC45]
5.5

Output measured protein stability index for this item: GKTWKQICDKHWTAKNSRVVCGMF [LOXL2]
2.06

Output measured protein stability index for this item: MAFLDKRLQVKEHQHEEIQNVRNH [ATL3]
3.84

Output measured protein stability index for this item: CERVVINVSGLRFETQMKTLAQFP [KCNA4]
2.55

Output measured protein stability index for this item: TIVKARDKLYHPECFMCSDCGLNL [PDLIM4]
2.19

Output measured protein stability index for this item: EFLRVQEERILHQQVKCIITEEKV [VPS39]
3.08

Output measured protein stability index for this item: GLQAPPPDDVDYATNPHVKPPYSY [FOXJ1]
4.42

Output measured protein stability index for this item: LPCVVQEGAIVMARGRHVGSSETN [PYCR3]
4.42

Output measured protein stability index for this item: KRYESHPVCADLQAKILQCYRENT [CHCHD3]
3.18

Output measured protein stability index for this item: PGGDQGGPPVGPLSLGLATVDIQN [WAS]
4.75

Output measured protein stability index for this item: CRLTHIPAYKVSGDKNEEQVLNAI [ZER1]
3.5

Output measured protein stability index for this item: ERALDATEVPFSITTDNLQCRERR [TEKT4]
4.88

Output measured protein stability index for this item: EDAHLTQYKKEPVTTRQVRTIVEE [KRT17]
5.01

Output measured protein stability index for this item: ELALFQMSVLWLEHDRETRMQYAP [KLHL14]
2.44

Output measured protein stability index for this item: ITRVLYEVFIEWGISAKVFGATTN [ZBED1]
3.15

Output measured protein stability index for this item: EGSADTEDRKLPAPGADVKVHRAR [EHMT1]
5.27

Output measured protein stability index for this item: CRGIPRGPVRPAIPPPLSSVYAWG [NEK8]
2.3

Output measured protein stability index for this item: KGSFGKVCIVQKNDTKKMYAMKYM [STK32A]
2.49

Output measured protein stability index for this item: IRERPAAIPIEIKSIDDTSNFDDF [STK38L]
4.31

---

Form field: protein stability index (one value per entry).
Test Details: protein stability index of a GFP-peptide fusion (GPS, HEK-293T) (PSI 1-6); higher = more stable
Stated Conditions: treatment: DMSO; c terminus: a fixed tail appended
Give the figure by itself; no unit, no explanation.

// solved cases for protein stability index follow
INSERT INTO assay_data (sequence, data_value) VALUES
  ('EPGYIDSEIGTSDQIVPEYQEDSD [TRIB1]', 5.69),
  ('MLELRHRGSCPGPREAVSPPHREG [CDS1]', 4.26),
  ('TALHIACYNGQDAVVNELIDYGAN [ANKRD44]', 2.69),
  ('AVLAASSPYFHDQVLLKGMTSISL [ZBTB22]', 2.7),
  ('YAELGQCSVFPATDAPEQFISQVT [PLK2]', 2.67),
  ('TRLAFELFAEEQAEGPNRLLYKDG [LPCAT4]', 3.85),
  ('GTQHMFEDDPSVLYVSLHRYDHGT [HDAC6]', 2.34),
  ('NPPSDFSFQNMNSKRKAETWKKNR [STK38L]', 4.65);

Output measured protein stability index for this item: SFQNMNSKRKAETWKKNRRQLAYS [STK38L]
3.23

Output measured protein stability index for this item: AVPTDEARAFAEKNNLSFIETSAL [RAB11B]
3.31

Output measured protein stability index for this item: SSSSSSSSSSSASSSASSSFSEEG [NFE2L1]
5.43

Output measured protein stability index for this item: VNSQFTAAVFKETFKSLSHIDPDV [ALG2]
2.86

Output measured protein stability index for this item: NNADLCLTDDKQVLNTQGQKTSGQ [DLC1]
5.18

Output measured protein stability index for this item: LPLSHIAAQMMDIWVPIKIGALTY [ACSBG2]
2.79

Output measured protein stability index for this item: YTDNSIRPEELLQMELLLVNKLKW [CCND1]
2.14

Output measured protein stability index for this item: SAVAMYMLYEKQKQQNVAHCMLVS [ZBED1]
2.92

Output measured protein stability index for this item: LELLSAPELKSLAKTFHLVNPNGQ [FAN1]
2.74

Output measured protein stability index for this item: FQVVKDAVLDCLLDFLPKDVKKEK [TENT5D]
5.16

Output measured protein stability index for this item: EGTLGYAIGGTYLGPAFRGLKGRT [SPSB2]
3.14

---

Test Details: protein stability index of a GFP-peptide fusion (GPS, HEK-293T) (PSI 1-6); higher = more stable
Stated Conditions: treatment: DMSO; c terminus: a fixed tail appended
Measured Attribute: protein stability index
Give the figure by itself; no unit, no explanation.

INSERT INTO assay_data (sequence, data_value) VALUES
  ('QIEEVFISEEIQMSTKESDFLCLL [MIA2]', 2.51),
  ('SCSSEDNLSLVCLPRSEDDDCDDD [DRICH1]', 5.59),
  ('WAFSCGTWLPSRAEWLLAVRSIQP [AASDHPPT]', 2.65),
  ('RPQLPQVLQHVRLPLLSPKFLVGT [KLHL20]', 2.8),
  ('PEMRWNKGTILKASVDYIRKLQKE [TFE3]', 2.91),
  ('ALLGYEMVQVACGASHVLALSTER [NEK8]', 2.5),
  ('GYGRAPGGLSLHDYKLLKPSLAVN [JUNB]', 2.92),
  ('GPSLPSKRESPGVGGGSGDEASAA [ZBTB22]', 5.5);

Output measured protein stability index for this item: SASRKSAEQLRIELNAEKFKNSLL [WEE1]
3.2

Output measured protein stability index for this item: GGEYQEPGGNVKGVWAPPAPGFGE [BEX5]
4.05

Output measured protein stability index for this item: HALSGHAKVKPFDPKITCKQECLI [TPH1]
2.13

Output measured protein stability index for this item: RLSGLSSVGHNWRKRMGTRRGRHE [C22orf15]
4.08

Output measured protein stability index for this item: RMLSKENKILQVFWEEHKASLGRE [CBY2]
2.96
